- Tested target: T1, CD3-specific binding domain (SEQ ID NO: 3) (biotinylated when used as immobilized SPR ligand (site not stated))
- T1 construct: also called α-CD3 DARPin
- T1 chain: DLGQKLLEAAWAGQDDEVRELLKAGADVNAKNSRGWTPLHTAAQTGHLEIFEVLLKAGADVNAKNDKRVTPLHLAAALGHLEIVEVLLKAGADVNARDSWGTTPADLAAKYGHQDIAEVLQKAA
- Test description: SPR (ProteOn), biotinylated CD3-specific binding domain immobilized, multi-trace 50-0.195 nM, 25 C
This section presents binders with their documented kon values.
I only need the number, in M⁻¹ s⁻¹, no unit after it.

α-CD3 DARPin-blocker (SEQ ID NO: 2) (designed binder) DLGKKLLQAARAGQLDEVRELLKAGADVNAKDAKGLTPLHLAAYHGHLEIVEVLLKAGADVNAKDVYGWTPLHIAAASGHLEIVEVLLKAGADVNAKDWLGWTPLHLAASHGHLEIVEVLLKAGADVNAQDKSGKTPADLAARAGHQDIAEVLQKAA
826000
2-in-1 DARPin 18 (SEQ ID NO: 11) (designed binder, N4C mono-domain; purified by its His-tag) DLDKKLLEAARAGQDDEVRILLKAGADVNAKDSTGWTPLHLAAPWGHPEIVEVLLKAGADVNAKDFQGWTPLHLAAAAGHLEIVEVLLKAGADVNAKDVYGWTPLHIAAASGHLEIVEVLLKAGADVNAKDWLGWTPLHLAASHGHLEIVEVLLKAGADVNAQDKSGKTPADLAARAGHQDIAEVLQKAA
514000
2-in-1 DARPin 11 (SEQ ID NO: 6) (designed binder, N3C mono-domain; purified by its His-tag) DLDKKLLEAARAGQDDEVRILLKAGADVNAKDSTGWTPLHLAAPWGHPEIVEVLLKAGADVNAKDVYGWTPLHIAAASGHLEIVEVLLKAGADVNAKDWLGWTPLHLAASHGHLEIVEVLLKAGADVNAQDKSGKTPADLAARAGHQDIAEVLQKAA
691000
2-in-1 DARPin 13 (SEQ ID NO: 8) (designed binder, N3C mono-domain; purified by its His-tag) DLDKKLLEAARAGQDDEVRILLKAGADVNAKDSTGWTPLHLAAPWGHPEIVEVLLKAGADVNAKDFYGWTPLHLAAAAGHLEIVEVLLKAGADVNAKDWLGWTPLHLAASHGHLEIVEVLLKAGADVNAQDKSGKTPADLAARAGHQDIAEVLQKAA
693000
2-in-1 DARPin 20 (SEQ ID NO: 13) (designed binder, N4C mono-domain; purified by its His-tag) DLDKKLLEAARAGQDDEVRILLKAGADVNAKDSTGWTPLHLAAPWGHPEIVEVLLKAGADVNAKDFQGWTPLHLAAAAGHLEIVEVLLKAGADVNAKDVYGWTPLHLAAAAGHLEIVEVLLKAGADVNAKDWLGWTPLHLAASHGHLEIVEVLLKAGADVNAQDKSGKTPADLAARAGHQDIAEVLQKAA
350000

Attention now shifts to the item below.
INPUT: Which value of kon has been reported for 2-in-1 DARPin 15 (SEQ ID NO: 9) (designed binder, N3C mono-domain; purified by its His-tag) DLDKKLLEAARAGQDDEVRILLKAGADVNAKDSTGWTPLHLAAPWGHPEIVEVLLKAGADVNAKDFQGWTPLHLAAAAGHLEIVEVLLKAGADVNAKDWLGWTPLHLAASHGHLEIVEVLLKAGADVNAQDKSGKTPADLAARAGHQDIAEVLQKAA in the records?
OUTPUT: 151000
